Measured values drawn from ChEMBL document CHEMBL1201862 for this set.

System: SW-620
assayOverview: NCI tumour cell line growth inhibition, 48 h
Active and inactive are the calls of the source. Rule as the data show it: active = GI50 up to about 1.1 µM and inactive = higher.

molecule	GI50
N#CC1=C(c2ccccc2)C(O)(c2ccccc2)NC1=O (configuration not stated)	> 100 µM (inactive)
Cc1ccc(NC(=O)C2C(=O)N(c3ccc(C)c(C)c3)C(=O)/C2=N\NC(N)=S)cc1C (configuration not stated)	> 100 µM (inactive)
COC(=O)c1cc(O)c(O)c(O)c1-c1c(O)c(O)c(O)c(SC[C@H](NC(=O)OCc2ccccc2)C(=O)OCc2ccccc2)c1C(=O)OC	23.8 µM (inactive)
Cc1cc([N+](=O)[O-])ccc1/N=N/C(=O)NNc1ccc([N+](=O)[O-])cc1C	16.7 µM (inactive)
Cc1c(N)nc([C@H](CC(N)=O)NC[C@H](N)C(N)=O)nc1C(=O)N[C@H](C(=O)N[C@H](C)[C@@H](O)CC(=O)N[C@H](C(=O)NC(O[C@@H]1O[C@@H](C)[C@@H](N)[C@@H](O)[C@H]1O)C(O)c1nc(-c2nc(C(=O)NCCCCN)cs2)cs1)[C@@H](C)O)[C@@H](O[C@@H]1O[C@@H](CO)[C@@H](O)[C@H](O)[C@@H]1O[C@H]1O[C@H](CO)[C@@H](O)[C@H](OC(N)=O)[C@@H]1O)c1c[nH]cn1 (some centres not stated)	> 50 µM (inactive)
Oc1cc(-c2cccs2)nc2cc3c(cc12)OCO3	3.03 µM (inactive)
OC1CC2CCCN(CCc3c1[nH]c1ccccc31)C2 (configuration not stated)	> 100 µM (inactive)
O=C1C[C@H]2[C@H](c3ccc(Br)cc3)[C@H]3C(=O)c4ccccc4NC(=O)[C@@H]3[C@@]2(O)c2ccccc2N1	19.7 µM (inactive)
CC(C)=CC(C(O)c1ccccc1)S(=O)(=O)c1nccn1C (configuration not stated)	> 100 µM (inactive)
Cc1ccc(NC(=O)C(=O)C(C#N)c2nc(-c3ccc(-c4ccccc4)cc3)cs2)c(C)c1 (configuration not stated)	17.4 µM (inactive)
NNC1=N/C(=C\c2ccco2)C(=O)N1	> 100 µM (inactive)
NN=C(CC(O)(C(F)(F)Cl)C(F)(F)Cl)CC(O)(C(F)(F)Cl)C(F)(F)Cl	> 10 µM (inactive)
O=P(O)(O)OC1O[C@H](CO)[C@H](O)[C@H](O)[C@H]1O (some centres not stated)	> 100 µM (inactive)
Cn1/c(=N\N=C(\CNCCO)[C@@H](O)[C@@H]2OC(c3ccccc3)OC[C@H]2O)sc2ccccc21 (some centres not stated)	18 µM (inactive)
CN(C)C1(N(C)C)Oc2c(c(=O)n(C)c(=O)n2C)C(c2ccccc2Br)C1(F)F (configuration not stated)	> 100 µM (inactive)
CC(C)(CCc1nc2ccccc2[nH]1)C(=O)O	> 100 µM (inactive)
O=C1NC(=O)C23C(=O)NC(=O)C12C1C=CC3CC1 (configuration not stated)	> 10 µM (inactive)
